Test system: Saccharomyces cerevisiae BY4741 SeMeCo community
Assay: z-score of subpopulation abundance vs DMSO median, subpopulation auxotrophic for HUM; higher = larger share of this subpopulation than in DMSO controls
Settings: 10 µM; 24 h; SM minimal medium; subpopulation (auxotrophy): HUM
Outcome label depends on z-score of subpopulation abundance relative to -0.7: at/above gives Condition met, below gives Condition not met.

Q: Item OCCN1CCN(CCCN2c3ccccc3Sc3ccc(Cl)cc32)CC1 with z-score of subpopulation abundance of -0.7 or above?
Result: Condition met

Q: Item CC1(C)S[C@@H]2[C@H](NC(=O)Cc3ccccc3)C(=O)N2[C@H]1C(=O)O [Penicillin G Sodium] with z-score of subpopulation abundance of -0.7 or above?
Result: Condition met

Q: Item O=C(O)c1ccccc1O with z-score of subpopulation abundance of -0.7 or above?
Result: Condition not met

Q: Item COc1ccc(NS(=O)(=O)c2ccc(N)cc2)nn1 with z-score of subpopulation abundance of -0.7 or above?
Result: Condition met

Q: Item CCCCCCCCCCCCCCCCCCOP(=O)([O-])OC1CC[N+](C)(C)CC1 with z-score of subpopulation abundance of -0.7 or above?
Result: Condition met

Q: Item COc1ccc(C[C@H](N)C(=O)N[C@H]2[C@@H](O)[C@H](n3cnc4c(N(C)C)ncnc43)O[C@@H]2CO)cc1 [Puromycin 2HCl] with z-score of subpopulation abundance of -0.7 or above?
Result: Condition met

Q: Item COc1cc(N)c(Cl)cc1C(=O)NC1CCN(CCCOc2ccc(F)cc2)CC1OC (stereo not drawn) [Cisapride hydrate] with z-score of subpopulation abundance of -0.7 or above?
Result: Condition met

Q: Item O=C(O)Cc1ccccc1Nc1c(Cl)cccc1Cl with z-score of subpopulation abundance of -0.7 or above?
Result: Condition not met

* * *

What mean cell size was measured for each of the following?
System: Saccharomyces cerevisiae BY4741 SeMeCo community
Assay: mean cell size (pixel area) (pixels); higher = larger cells
Conditions: 10 µM; 24 h; SM minimal medium
Structures can show the parent of a compound that is named as a salt.
Respond with the number and no other words.

Q: Name the reported mean cell size value associated with the compound CN1CCCN=C1/C=C/c1cccs1 [Pyrantel Pamoate]
Result: 12.8

Q: Name the reported mean cell size value associated with the compound NC12CC3CC(CC(C3)C1)C2 [Amantadine HCl]
Result: 12.6

Q: Name the reported mean cell size value associated with the compound CCN(CC)CCOC(=O)c1ccc(N)cc1
Result: 12.2

Q: Name the reported mean cell size value associated with the compound O=C1C(N(CO)C(=O)NCO)N(CO)C(=O)N1CO (centres undefined)
Result: 12.1

* * *

System: Saccharomyces cerevisiae BY4741 SeMeCo community
Assay: z-score of subpopulation abundance vs DMSO median, subpopulation auxotrophic for H; higher = larger share of this subpopulation than in DMSO controls
Conditions: 10 µM; 24 h; SM minimal medium; subpopulation (auxotrophy): H
Where a name gives a salt, the structure may show the parent alone.
parameter-measured: z-score of subpopulation abundance
Respond with the number and no other words.

Q: Name the reported z-score of subpopulation abundance value associated with the compound O=c1[nH]cc(F)c(=O)[nH]1 [Fluorouracil (5-Fluoracil, 5-FU)]
Result: 13.4

Q: Name the reported z-score of subpopulation abundance value associated with the compound O=C1C(=O)c2ccccc2C(O)=C1C1CCC(c2ccc(Cl)cc2)CC1 (stereo not given) [Atovaquone]
Result: 1.46

Q: Name the reported z-score of subpopulation abundance value associated with the compound CSCC1CN(/N=C/c2ccc([N+](=O)[O-])o2)C(=O)O1 (stereo not given) [Nifuratel]
Result: 5.51

Q: Name the reported z-score of subpopulation abundance value associated with the compound Cn1cc(C(=O)[C@@H]2CCc3[nH]cnc3C2)c2ccccc21 [Ramosetron Hydrochloride]
Result: -0.29

Q: Name the reported z-score of subpopulation abundance value associated with the compound COC(=O)C1=C(C)NC(C)=C(C(=O)OC(C)C)C1c1cccc2nonc12 (stereo not given) [Isradipine]
Result: -0.09

* * *

Tested on: Saccharomyces cerevisiae BY4741 SeMeCo community
Experiment: z-score of subpopulation abundance vs DMSO median, subpopulation auxotrophic for LU; higher = larger share of this subpopulation than in DMSO controls
Conditions: 10 µM; 24 h; SM minimal medium; subpopulation (auxotrophy): LU
Structures can show the parent of a compound that is named as a salt.
What z-score of subpopulation abundance was measured for each of the following?
Respond with the number and no other words.

Q: Name the reported z-score of subpopulation abundance value associated with the compound CCCCCCCCCCCCCCCCCCOP(=O)([O-])OC1CC[N+](C)(C)CC1
Result: 12.1

Q: Name the reported z-score of subpopulation abundance value associated with the compound CCCCc1oc2ccccc2c1C(=O)c1cc(I)c(OCCN(CC)CC)c(I)c1 [Amiodarone HCl]
Result: -1.37

Q: Name the reported z-score of subpopulation abundance value associated with the compound CC[C@@H]1/C=C(\C)C[C@H](C)C[C@H](OC)[C@H]2O[C@@](O)(C(=O)C(=O)N3CCCC[C@H]3C(=O)O[C@H](/C(C)=C/[C@@H]3CC[C@H](Cl)[C@H](OC)C3)[C@H](C)[C@@H](O)CC1=O)[C@H](C)C[C@@H]2OC
Result: -0.41

Q: Name the reported z-score of subpopulation abundance value associated with the compound CC(C)c1nc(N(C)S(C)(=O)=O)nc(-c2ccc(F)cc2)c1/C=C/[C@@H](O)C[C@@H](O)CC(=O)O
Result: 1.26

Q: Name the reported z-score of subpopulation abundance value associated with the compound CC(C)Cc1ccc(C(C)C(=O)O)cc1 (centres undefined)
Result: -4.01

Q: Name the reported z-score of subpopulation abundance value associated with the compound O=c1[nH]cc(F)c(=O)[nH]1
Result: 0.59

Q: Name the reported z-score of subpopulation abundance value associated with the compound OC(CCN1CCCCC1)(c1ccccc1)C1CCCCC1 (centres undefined) [Trihexyphenidyl hydrochloride]
Result: 1.04

Q: Name the reported z-score of subpopulation abundance value associated with the compound CC(C)(C)C(=O)OCOC(=O)[C@@H]1N2C(=O)[C@@H](/N=C/N3CCCCCC3)[C@H]2SC1(C)C [Pivmecillinam hydrochloride]
Result: 0.57

Q: Name the reported z-score of subpopulation abundance value associated with the compound CO/N=C(/C(=O)N[C@@H]1C(=O)N2C(C(=O)OCOC(=O)C(C)(C)C)=C(C)CS[C@H]12)c1csc(N)n1 [Cefetamet pivoxil hydrochloride]
Result: 0.94

Q: Name the reported z-score of subpopulation abundance value associated with the compound Cc1c(-c2ccc(O)cc2)n(Cc2ccc(OCCN3CCCCCC3)cc2)c2ccc(O)cc12 [Bazedoxifene HCl]
Result: 0.03

Q: Name the reported z-score of subpopulation abundance value associated with the compound NC[C@H]1O[C@H](O[C@H]2[C@H](O)[C@@H](O[C@H]3O[C@H](CO)[C@@H](O)[C@H](N)[C@H]3O)[C@H](N)C[C@@H]2N)[C@H](O)[C@@H](O)[C@@H]1O [Kanamycin sulfate]
Result: -0.08

Q: Name the reported z-score of subpopulation abundance value associated with the compound NC(=NCCCCCCN=C(N)N=C(N)Nc1ccc(Cl)cc1)N=C(N)Nc1ccc(Cl)cc1 [Chlorhexidine?2HCl]
Result: -1.64

Q: Name the reported z-score of subpopulation abundance value associated with the compound COc1ccc2c(c1)c(CC(=O)OCC(=O)O)c(C)n2C(=O)c1ccc(Cl)cc1
Result: 0.16

Q: Name the reported z-score of subpopulation abundance value associated with the compound NC(=O)OCC(COC(N)=O)c1ccccc1 [Felbamate]
Result: -0.71

Q: Name the reported z-score of subpopulation abundance value associated with the compound CN(Cc1ccc(C(C)(C)C)cc1)Cc1cccc2ccccc12 [Butenafine HCl]
Result: -1.41

Q: Name the reported z-score of subpopulation abundance value associated with the compound NNc1nncc2ccccc12 [Hydralazine HCl]
Result: -0.18

Q: Name the reported z-score of subpopulation abundance value associated with the compound CC(=O)OCC(COC(C)=O)OC(C)=O
Result: -0.81

Q: Name the reported z-score of subpopulation abundance value associated with the compound C(=C\c1ccccc1)/CN1CCN(C(c2ccccc2)c2ccccc2)CC1
Result: 1.38

Q: Name the reported z-score of subpopulation abundance value associated with the compound CCn1cc(C(=O)O)c(=O)c2cc(F)c(N3CCN(C)CC3)cc21 [Pefloxacin Mesylate]
Result: -0.06

Q: Name the reported z-score of subpopulation abundance value associated with the compound Clc1ccccc1C(c1ccccc1)(c1ccccc1)n1ccnc1
Result: -0.93

Q: Name the reported z-score of subpopulation abundance value associated with the compound COc1ccc(C[C@H](N)C(=O)N[C@H]2[C@@H](O)[C@H](n3cnc4c(N(C)C)ncnc43)O[C@@H]2CO)cc1 [Puromycin 2HCl]
Result: -0.06

Q: Name the reported z-score of subpopulation abundance value associated with the compound Cc1cc(NS(=O)(=O)c2ccc(N)cc2)no1
Result: 0.02

Q: Name the reported z-score of subpopulation abundance value associated with the compound CC[C@H]1OC(=O)[C@H](C)[C@@H](O[C@H]2C[C@@](C)(OC)[C@@H](O)[C@H](C)O2)[C@H](C)[C@@H](O[C@@H]2O[C@H](C)C[C@H](N(C)C)[C@H]2O)[C@](C)(O)C[C@@H](C)CN[C@H](C)[C@@H](O)[C@]1(C)O
Result: -0.39

Q: Name the reported z-score of subpopulation abundance value associated with the compound Cc1ncc([N+](=O)[O-])n1CCO
Result: -0.37

Q: Name the reported z-score of subpopulation abundance value associated with the compound Oc1c(Cl)cc(Cl)c2cccnc12
Result: 11.5

Q: Name the reported z-score of subpopulation abundance value associated with the compound Cc1onc(-c2ccccc2)c1-c1ccc(S(N)(=O)=O)cc1
Result: -0.06

Q: Name the reported z-score of subpopulation abundance value associated with the compound CC1=C[C@H]2C(=O)O[C@H]3C[C@@H](C/C=C(\C)C[C@@H](C)/C=C/C=C4\CO[C@H](/C1=N\O)[C@@]42O)O[C@@]1(CC[C@H](C)[C@@H](C)O1)C3.CC[C@H]1O[C@]2(CC[C@@H]1C)C[C@@H]1C[C@@H](C/C=C(\C)C[C@@H](C)/C=C/C=C3\CO[C@@H]4/C(=N\O)C(C)=C[C@@H](C(=O)O1)[C@]34O)O2
Result: -0.7

Q: Name the reported z-score of subpopulation abundance value associated with the compound Cc1cc(NS(=O)(=O)c2ccc(N)cc2)nc(C)n1
Result: 0.99

Q: Name the reported z-score of subpopulation abundance value associated with the compound CN[C@@H]1[C@H](O[C@H]2[C@H](O[C@H]3[C@H](O)[C@@H](O)[C@H](NC(=N)N)[C@@H](O)[C@@H]3NC(=N)N)O[C@@H](C)[C@]2(O)CO)O[C@@H](CO)[C@H](O)[C@H]1O [Dihydrostreptomycin sulfate]
Result: -0.74
